Reference source: PubChem BioAssay

# Target Or System: Alpha-2C adrenergic receptor (Homo sapiens) (UniProt P18825)
# Sequence (P18825 whole entry, looked up): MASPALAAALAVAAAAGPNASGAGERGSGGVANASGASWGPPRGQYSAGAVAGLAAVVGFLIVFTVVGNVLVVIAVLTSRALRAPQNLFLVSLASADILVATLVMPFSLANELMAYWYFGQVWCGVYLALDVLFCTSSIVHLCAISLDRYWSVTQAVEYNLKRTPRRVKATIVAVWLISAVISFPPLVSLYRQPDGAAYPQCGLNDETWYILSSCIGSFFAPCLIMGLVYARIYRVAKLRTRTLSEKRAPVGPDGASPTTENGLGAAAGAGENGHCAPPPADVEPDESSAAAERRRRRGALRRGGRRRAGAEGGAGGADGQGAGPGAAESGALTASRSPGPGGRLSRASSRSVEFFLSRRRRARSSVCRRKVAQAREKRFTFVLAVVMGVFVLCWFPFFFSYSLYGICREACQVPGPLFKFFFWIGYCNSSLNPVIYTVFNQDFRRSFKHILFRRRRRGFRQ
# Test: modulators of alpha2C/GIRK thallium flux, primary screen, cell-based, HEK293 alpha2C/GIRK1/2 (AID 624);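 also: slope of fluorescence ratio to pre-addition baseline per second over 15 to 24 s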
# Setup Conditions: thallium flux BTC fluorescence, at 10 µM, actives lie on both sides
# label = 1 if slope >= 0.005 else -1

These solved cases illustrate the format of a correct answer.
Compound | Target Or System | Cat
CCN(CCCc1ccccc1)CCCc1ccccc1 | Alpha-2C adrenergic receptor (Homo sapiens) (UniProt P18825) | -1
CC1(C)CN(O)CCN1O | Alpha-2C adrenergic receptor (Homo sapiens) (UniProt P18825) | 1
CC12CCC(C(=O)NCCCN3CCOCC3)(OC1=O)C2(C)C (configuration not stated) | Alpha-2C adrenergic receptor (Homo sapiens) (UniProt P18825) | 1

Request: For this compound, is measured slope 0.005 or higher? CCOc1cccc(-c2nnc3sc(COc4ccccc4)nn23)c1
Response: 1

Request: For this compound, is measured slope 0.005 or higher? CCN1CC=C2C(C#N)=C(N)C(C#N)(C#N)[C@H](c3cccc(OC)c3OC)[C@H]2C1
Response: -1

Request: For this compound, is measured slope 0.005 or higher? COC(=O)/C(=C1/Oc2cc(C)oc(=O)c2S1)C(F)(F)F
Response: -1

Request: For this compound, is measured slope 0.005 or higher? CSC(=Nc1ccccc1)C1=C(O)COC1=O
Response: 1

Request: For this compound, is measured slope 0.005 or higher? CCCSc1nc(C)c(CC(=O)OCC)c(=O)[nH]1
Response: 1

Request: For this compound, is measured slope 0.005 or higher? Cc1ccc2[nH]c3c(c2c1)CCCC3C(N)=O (configuration not stated)
Response: 1

Request: For this compound, is measured slope 0.005 or higher? Nc1ccc2oc3ncccc3c(=O)c2c1
Response: -1

Request: For this compound, is measured slope 0.005 or higher? Cc1cc(OCC(=O)Nc2ccc3oc(-c4ccncc4)nc3c2)ccc1Cl
Response: 1

Request: For this compound, is measured slope 0.005 or higher? COc1cc(OC)cc(C(=O)N2CCC(N3CCN(c4ccccc4)CC3)CC2)c1
Response: 1
